molecular target: ENPP1 (Homo sapiens); assay: Substrate selectivity ratio, inhibition of cGAMP hydrolysis versus ATP hydrolysis; type: biochemical; conditions: ratio Ki AMP-pNP / Ki cGAMP
Sequence (P22413 whole entry): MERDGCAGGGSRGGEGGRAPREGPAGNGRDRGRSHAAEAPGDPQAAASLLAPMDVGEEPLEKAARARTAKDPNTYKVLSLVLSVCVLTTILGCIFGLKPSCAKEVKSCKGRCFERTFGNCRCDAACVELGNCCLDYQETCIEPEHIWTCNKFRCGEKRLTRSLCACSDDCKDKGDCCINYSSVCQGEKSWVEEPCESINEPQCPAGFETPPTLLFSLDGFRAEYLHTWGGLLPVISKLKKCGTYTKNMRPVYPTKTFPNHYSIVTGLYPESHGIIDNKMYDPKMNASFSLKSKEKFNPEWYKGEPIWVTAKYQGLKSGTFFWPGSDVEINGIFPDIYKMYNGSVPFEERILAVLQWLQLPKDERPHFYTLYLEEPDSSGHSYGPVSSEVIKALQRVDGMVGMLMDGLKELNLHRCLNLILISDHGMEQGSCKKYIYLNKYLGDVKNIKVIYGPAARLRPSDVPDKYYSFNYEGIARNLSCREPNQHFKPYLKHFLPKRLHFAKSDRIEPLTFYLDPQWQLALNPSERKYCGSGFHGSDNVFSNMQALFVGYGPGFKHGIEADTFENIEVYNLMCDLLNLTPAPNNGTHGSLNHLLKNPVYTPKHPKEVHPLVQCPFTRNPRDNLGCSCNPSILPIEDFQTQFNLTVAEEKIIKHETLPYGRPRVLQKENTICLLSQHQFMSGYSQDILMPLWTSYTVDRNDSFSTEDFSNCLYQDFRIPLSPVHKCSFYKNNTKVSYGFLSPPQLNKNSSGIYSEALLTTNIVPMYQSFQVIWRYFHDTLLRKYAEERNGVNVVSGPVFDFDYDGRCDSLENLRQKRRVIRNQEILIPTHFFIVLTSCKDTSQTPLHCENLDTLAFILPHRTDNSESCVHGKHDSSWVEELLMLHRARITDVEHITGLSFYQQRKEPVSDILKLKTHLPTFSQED
quantity name: Substrate Selectivity: Ki_AMP-pNP/Ki_cGAMP

Examples from the recorded data:
                              sample_smiles        assayed_system  result
0  COc1cc2ncc(C#N)c(-c3ccc4c(c3)CN(S(N)(=O)=O)CC4)c2cc1OC  ENPP1 (Homo sapiens)    12.2
1   Cn1cnc2ncnc(N3CCC(CCNS(N)(=O)=O)CC3)c21  ENPP1 (Homo sapiens)    >115
2  COc1ccc2c(-c3ccc4c(c3)CN(S(N)(=O)=O)CC4)c(C)cnc2c1  ENPP1 (Homo sapiens)     >32

Your task in this section: give Substrate Selectivity: Ki_AMP-pNP/Ki_cGAMP for each listed record.
1. COc1ccc2c(Oc3ccc(NS(N)(=O)=O)c(C)c3)ccnc2c1
2. COc1cc2nccc(Oc3ccc(S(N)(=O)=O)cc3)c2cc1F
3. COc1ccc2c(-c3ccc(CNS(N)(=O)=O)cc3)c(C(F)(F)F)cnc2c1
4. COc1cc2nccc(NCc3ccc(NS(N)(=O)=O)cc3)c2cc1OC
5. COc1cc2ncc(C#N)c(-c3ccc4c(c3)CN(S(N)(=O)=O)CC4)c2cc1F

**Result**
1. 28.4
2. 22.5
3. 39
4. > 11.9
5. >533

Your task in this section: give Substrate Selectivity: Ki_AMP-pNP/Ki_cGAMP for each listed record.
1. COc1cc2ncnc(-c3ccc4c(c3)CCN(S(N)(=O)=O)C4)c2cc1OC
2. COc1ccc2c(N3CCc4cc(NS(N)(=O)=O)ccc43)ccnc2c1F
3. COc1ccc2c(-c3ccc(NS(N)(=O)=O)cc3)ccnc2c1

**Result**
1. >61.5
2. >77
3. >20

These measurements were taken from patent US20230183239A1.
